# tested_on: cyclin D2-Cdk4 (Homo sapiens, UniProt P11802)
# Sequence (P11802 whole entry): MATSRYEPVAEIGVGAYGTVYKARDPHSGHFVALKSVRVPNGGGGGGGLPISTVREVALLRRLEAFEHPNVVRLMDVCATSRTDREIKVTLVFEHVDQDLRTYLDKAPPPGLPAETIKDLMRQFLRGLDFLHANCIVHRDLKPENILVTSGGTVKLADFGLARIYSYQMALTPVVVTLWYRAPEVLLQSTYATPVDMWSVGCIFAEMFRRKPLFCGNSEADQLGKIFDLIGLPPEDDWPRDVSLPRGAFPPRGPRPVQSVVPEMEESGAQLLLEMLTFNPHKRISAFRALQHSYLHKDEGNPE
# Sequence (P30279 whole entry partner): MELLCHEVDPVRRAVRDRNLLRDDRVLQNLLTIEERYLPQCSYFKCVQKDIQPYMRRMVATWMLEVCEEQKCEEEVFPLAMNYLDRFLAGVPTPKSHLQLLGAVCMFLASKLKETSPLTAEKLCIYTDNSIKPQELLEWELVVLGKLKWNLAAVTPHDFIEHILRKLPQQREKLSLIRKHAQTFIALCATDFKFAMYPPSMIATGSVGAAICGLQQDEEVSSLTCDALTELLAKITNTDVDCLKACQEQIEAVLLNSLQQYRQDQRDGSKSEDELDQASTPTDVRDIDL
# protocol_text: Cyclin D2-Cdk4 inhibitory activity (33P-ATP phosphorylation of RB peptide substrate)
# experimental_conditions: 50 μM ATP, 100 μM substrate peptide, 30° C., 45 minutes; read-out: IC50 against cyclin D2-Cdk4 activity
measured_attribute: pIC50
Keep it numeric: pIC50 is minus log10 of the concentration in mol/L.

Looking for the measured pIC50 of COC[C@@H]1CCCCN1Cc1cc2c3nc(c(=O)[nH]c3c1)-c1cccc3c(=O)n(sc13)CCN1CC[C@@H](C1)O2 [[37]] , can you help?
7.77

# input molecule: CCOC(=O)C1CCCN(Cc2cc3c4nc(c(=O)[nH]c4c2)-c2cccc4c(=O)n([nH]c24)CCCCCO3)C1 (racemic) [[56]] ; wanted: its pIC50
8.04

Recorded pIC50 of COCc1cc2c3nc(c(=O)[nH]c3c1)-c1cccc3c(=O)n(sc13)CCN1CC[C@@H](C1)O2 [[45]] , please.
7.85

Give its pIC50 value. Item: CN1CCOc2cccc3[nH]c(=O)c(nc23)-c2cccc3c(=O)n([nH]c23)CC1 [[71]]
7.89

// lookup pIC50 for O=c1[nH]c2ccc(CCN3CCCCC3)c3c2nc1-c1cccc2c(=O)n(sc12)CCCCCO3 [[80]]
8.77

Which value of pIC50 has been reported for C[C@H]1CN(C)CCN2Sc3c(cccc3-c3nc4c(cccc4[nH]c3=O)O1)C2=O [[6]] in the records?
8.54

For the molecule shown here, C[C@@H]1CC2CN1CCn1[nH]c3c(cccc3c1=O)-c1nc3c(cc(N4CC5CCC(CC5)C4)cc3[nH]c1=O)O2 (stereo partly drawn) [[124]] , give the reported pIC50.
8.09

Entry C[C@@H]1COc2cccc3[nH]c(=O)c(nc23)-c2cccc3c2SN(CCN1C)C3=O [[8]] has what pIC50?
8.21

Quick one: pIC50 for CC1CCN(c2cc3c4nc(c(=O)[nH]c4c2)-c2cccc4c(=O)n([nH]c24)CCN2C[C@H](C[C@H]2C)O3)CC1 [[126]] ?
8.03

What does the record list as pIC50 for O=c1[nH]c2cccc3c2nc1-c1cccc2c(=O)n(sc12)CCN1CCC(C1)O3 (racemic) [[10]] ?
8.20

Entry C[C@@H]1C[C@H]2CN1CCn1[nH]c3c(cccc3c1=O)-c1nc3c(cc(-c4ncc(C(F)(F)F)cn4)cc3[nH]c1=O)O2 [[84]] : reported pIC50 = ?
8.21

Given the molecule CC1CCCN(Cc2cc3c4nc(c(=O)[nH]c4c2)-c2cccc4c(=O)n([nH]c24)CCCCCO3)C1 (racemic) [[55]] , what is its reported pIC50?
8.10

Data request, read-out pIC50, for O=c1[nH]c2cc(CN3CCCCC3)cc3c2nc1-c1cccc2c(=O)n(sc12)CC[C@@H]1CC[C@@H](C1)O3 [[14]]
8.66

Looking for the measured pIC50 of CC1CCCCN1Cc1cc2c3nc(c(=O)[nH]c3c1)-c1cccc3c(=O)n([nH]c13)CCCCCO2 (racemic) [[54]] , can you help?
8.07

Please report the recorded pIC50 for Cc1cc2c3nc(c(=O)[nH]c3c1)-c1cccc3c(=O)n([nH]c13)CCN1C[C@H](C[C@H]1C)O2 [[135]] .
8.60
